# Test Summary: Thermodynamic solubility of the compound in aqueous buffer containing 20 mmol/L sodium glycochenodeoxycholate at pH 6.8 by HPLC analysis
# Format: physicochemical
# Test Context: aqueous buffer with 20 mmol/L sodium glycochenodeoxycholate
Use Fulfilled when the recorded solubility thermodynamic is no lower than 20 µg/mL; use Not fulfilled when it is lower.

Given the entry CCC(CC)(NC(=O)c1cnn2c1NC(c1ccccc1)CC2(C)C)c1ccc(C)cc1 (stereo not given) , answer whether its solubility thermodynamic meets or surpasses 20 µg/mL.
Not fulfilled

Given the entry CCC(CC)(NC(=O)c1cnn2c1NC(c1ccccc1)CC2(C)C)c1ccc(OC)cc1 (stereo not given) , answer whether its solubility thermodynamic meets or surpasses 20 µg/mL.
Fulfilled

Please tell me: is the molecule CCC(CC)(NC(=O)c1cnn2c1NC(c1ccccc1)CC2(C)C)c1ccc(C(F)(F)F)cc1 (stereo not given) at or over 20 µg/mL in terms of solubility thermodynamic?
Not fulfilled

Determine whether this molecule has solubility thermodynamic no lower than 20 µg/mL: CC(=O)O.CCC(CC)(NC(=O)c1cnn2c1NC(c1ccccc1)CC2(C)C)c1ccc(Cl)cc1 (stereo not given)
Fulfilled

Reported solubility thermodynamic at or above 20 µg/mL? CCC(CC)(NC(=O)c1cnn2c1NC(c1ccccc1)CC2(C)C)c1ccc(OCc2ccccc2)cc1 (stereo not given)
Fulfilled

----------
Kindly supply the reported AUC(0-t) at 24 h values for the records listed here.
# Test Summary: AUC (0 to 24 hrs) in Crl:CD(SD) rat at 10 mg/kg, po
# Format: ADME, organism-based
# Parameters: time < 24 hr, dose 10 mg/kg, route oral
# Test Context: plasma
Note: unit ng·h/mL is implicit; provide only the numeric part.

Field AUC(0-t) at 24 h (entry CCC(CC)(NC(=O)c1cnn2c1NC(c1ccccc1)CC2(C)C)c1ccc(C)cc1.Cl (racemic) ) reads 2460

The reported value for CCC(CC)(NC(=O)c1cnn2c1NC(c1ccccc1)CC2(C)C)c1ccc(Cl)cc1.Cl (configuration not stated) in terms of AUC(0-t) at 24 h is 2460

----------
# Test Summary: Thermodynamic solubility of the compound in aqueous buffer containing 20 mmol/L sodium glycochenodeoxycholate at pH 6.8 by HPLC analysis
# Type: physicochemical
# Test Context: aqueous buffer with 20 mmol/L sodium glycochenodeoxycholate
Result Type: log10(solubility thermodynamic) (log10 of the value in mg/mL)
Scale: decimal log of solubility thermodynamic, solubility thermodynamic in mg/mL.

Value of log10(solubility thermodynamic) reported for the compound CCC(CC)(NC(=O)c1cnn2c1NC(c1ccccc1)CC2(C)C)c1ccc(Cl)cc1.CS(=O)(=O)O (centres undefined) is -0.79

The compound listed as CCC(CC)(NC(=O)c1cnn2c1NC(c1ccccc1)CC2(C)C)c1ccc(Cl)cc1.Cl (centres undefined) shows log10(solubility thermodynamic) equal to -0.90

Entry CCC(CC)(NC(=O)c1cnn2c1NC(c1ccccc1)CC2(C)C)c1ccc(F)cc1 (centres undefined) ; log10(solubility thermodynamic) = -2.07

The measured log10(solubility thermodynamic) associated with CCC(CC)(NC(=O)c1cnn2c1NC(c1ccccc1)CC2(C)C)c1ccc(Cl)cc1 (centres undefined) reads -1.27

Reported log10(solubility thermodynamic) of CCOC(=O)c1ccc(C(CC)(CC)NC(=O)c2cnn3c2NC(c2ccccc2)CC3(C)C)cc1 (centres undefined) : -2.27

Per the record, CCC(CC)(NC(=O)c1cnn2c1NC(c1ccccc1)CC2(C)C)c1ccc(C)cc1.Cl (racemic) has log10(solubility thermodynamic) of -0.85

Lab book: log10(solubility thermodynamic) of CCC(CC)(NC(=O)c1cnn2c1NC(c1ccccc1)CC2(C)C)c1ccc(Cl)cc1.O=S(=O)(O)O (centres undefined) noted as -0.69

Item: CCC(CC)(NC(=O)c1cnn2c1NC(c1ccccc1)CC2(C)C)c1ccccc1 (centres undefined) | log10(solubility thermodynamic): -1.65

Documented log10(solubility thermodynamic) of CCC(CC)(NC(=O)c1cnn2c1NC(c1ccccc1)CC2(C)C)c1ccc(C)cc1.CS(=O)(=O)O (centres undefined) : -0.93
